Listed below: kon values for each entry.
# target: T1, HUMAN B7H3 (Biacore analyte) (human, UniProt Q5ZPR3 29-461, limits assumed)
# T1 construct: also called hB7H3
# T1 sequence (looked up): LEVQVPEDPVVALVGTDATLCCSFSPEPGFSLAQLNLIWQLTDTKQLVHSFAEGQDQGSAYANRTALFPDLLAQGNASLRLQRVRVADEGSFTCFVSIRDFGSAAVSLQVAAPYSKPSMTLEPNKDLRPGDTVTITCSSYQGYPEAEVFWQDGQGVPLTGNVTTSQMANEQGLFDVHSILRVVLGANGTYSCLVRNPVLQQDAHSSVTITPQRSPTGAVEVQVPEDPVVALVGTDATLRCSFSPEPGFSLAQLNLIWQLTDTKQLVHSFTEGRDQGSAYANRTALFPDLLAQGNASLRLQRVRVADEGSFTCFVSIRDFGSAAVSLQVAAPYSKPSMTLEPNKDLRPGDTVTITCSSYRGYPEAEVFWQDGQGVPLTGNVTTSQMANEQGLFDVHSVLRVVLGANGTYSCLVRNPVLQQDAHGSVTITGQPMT
# experimentDescription: SPR, Biacore 8K, antibody captured, B7H3 as analyte, 1:1 binding
measuredEndpoint: kon (M⁻¹ s⁻¹)

| binder | val |
| --- | --- |
| 10-B9-D10-A12 (human IgG1 chimeric antibody) (antibody, V domains shown, human IgG1 chimeric antibody of the mouse clone) VH: EVQLQESGPELVRPGVSVKISCKGSGYTFTDYTMHWVKLSHAKSLEWIGVISTYYGNTNYNQKFKGKATLTVDKSSSTAYMELARLTSEDSAIYYCARASYGSGYGPYYWYFDVWGAGTTVTVSS VL: DIQMTQSPASLFASVGETVTITCRASEKIYSYLAWYFQKQGKSPQFLVYNANALAEGVPSRFSGSGSGTQFSLKINSLQPEDFGTYYCQHHYGTPVTFGAGSKLELK | 375000 |
| 25-C8-D7-C5 (human IgG1 chimeric antibody) (antibody, V domains shown, human IgG1 chimeric antibody of the mouse clone) VH: EVQLQESGGGLVKPGGSLKFSCAASGFTFSTYAMSWVRQTPEKRLEWVATISGGGIDTYYPDSVKGRFTISRDNAKNTLYLQMNSLRSEDTAMYYCARQGSKGWGAMDYWGQGTSVTVSS VL: QIVLTQSPAIMSASPGEKVTMTCRASSSVSFMHWYQQKSGTSPKRWIYETSKLASGVPDRFSGSGSGTSYSLTISSMEAEDAATYYCQQWSSNPLTFGAGTKLELK | 203000 |
| 16-C6-F7-F5 (human IgG1 chimeric antibody) (antibody, V domains shown, human IgG1 chimeric antibody of the mouse clone) VH: QIQLVQSGPEVKKPGETVKISCKASGYTFTKYGINWVKQAPGEGLKWMGWIWTYTGKPTYGDDFKGRFAFSLETSASTAYLQISDLKIEDMATYFCARDDGYYYTMNYWGQGTSVTVSS VL: DIVMTQTPLSLPVSLGDQASISCRSSQSLLHTNGDTYLHWYLQKAGQPPKLLIYKVSNRFSGVPDRFSGSGSGTDFTLKISRVEAEDLGVYFCSQSTHIPWTFGGGTKLEIK | 377000 |

Each recorded value in this set is attributed to patent US20240400689A1.
